# Tested on: SK-MEL-2
# METHOD SUMMARY: Anti-proliferative effect (CellTiter-Glo, 72 h), SK-MEL-2
# Type: cell-based
# CONDITION PARAMETERS: Homo sapiens, SK-MEL-2 cells, median, read-out: IC50 antiproliferation assay SK-MEL-2 [M] (median)
Catalogue of IC50 readings, one per entry.
READOUT NAME: IC50 (M)

>>> observed_measurement("Cc1c2c(nn1CCN1CCOCC1)COCCCCn1c(C(=O)O)c(CCCOc3cccc4cc(F)ccc34)c3cccc-2c31 (single isomer, unassigned) [Example 285]")
"1.09e-05"
>>> observed_measurement("CCc1nn(CCN2CCOCC2)c2c1-c1cccc3c(CCCOc4cccc5ccccc45)c(C(=O)O)n(c13)CCCCOC2 (single isomer, unassigned; enantiomer 1) [Example 199]")
"2.9e-05"
>>> observed_measurement("CCc1c2c(nn1C)COCCCCn1c(C(=O)O)c(CCCOc3cccc4cc(F)ccc34)c3cccc-2c31 (single isomer, unassigned) [Example 282]")
"1.25e-05"
>>> observed_measurement("CCc1c2c(nn1C)COCCCCn1c(C(=O)O)c(CCCOc3cccc4ccccc34)c3ccc(C)c-2c31 (single isomer, unassigned; enantiomer 1) [Example 154]")
"1.84e-05"
